Data origin, for the record: paper PMC7655067

Biological target: OfChtI (Ostrinia furnacalis, UniProt Q2V6H4)
Sequence (Q2V6H4 entry or part of it): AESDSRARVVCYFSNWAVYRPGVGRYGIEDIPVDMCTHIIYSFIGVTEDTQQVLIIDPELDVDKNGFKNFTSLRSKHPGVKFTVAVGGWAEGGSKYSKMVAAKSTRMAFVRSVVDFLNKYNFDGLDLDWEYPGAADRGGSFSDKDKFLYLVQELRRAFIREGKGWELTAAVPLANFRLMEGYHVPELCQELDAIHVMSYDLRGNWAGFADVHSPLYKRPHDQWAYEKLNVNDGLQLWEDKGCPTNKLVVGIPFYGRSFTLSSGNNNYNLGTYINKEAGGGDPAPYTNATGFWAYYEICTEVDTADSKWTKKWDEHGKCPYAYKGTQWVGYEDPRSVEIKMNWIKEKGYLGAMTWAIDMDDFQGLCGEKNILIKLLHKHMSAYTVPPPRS
Test: Inhibitory activity assay with MU-(GlcNAc)2, Ki by Dixon plots
Type: biochemical
Conditions: pH 6.0, Dixon plots
Overview of recorded Ki for various compounds
Please reply with the bare figure in µM and do not write the unit itself.

Worked examples follow.
COc1ccc2cc3[n+](cc2c1OC(=O)c1ccccc1)CCc1cc2c(cc1-3)OCO2 7.28
COC(=O)CCC(=O)Oc1c(OC)ccc2cc3[n+](cc12)CCc1cc2c(cc1-3)OCO2 6.43

Need Ki of `COc1ccc2cc3[n+](cc2c1OC(=O)c1ccc(F)nc1)CCc1cc2c(cc1-3)OCO2` , thanks.
3.03
